Biological target: Q320S NAPE-PLD (Homo sapiens, UniProt Q6IQ20, Q320S)
Sequence (Q6IQ20 whole entry Q320S): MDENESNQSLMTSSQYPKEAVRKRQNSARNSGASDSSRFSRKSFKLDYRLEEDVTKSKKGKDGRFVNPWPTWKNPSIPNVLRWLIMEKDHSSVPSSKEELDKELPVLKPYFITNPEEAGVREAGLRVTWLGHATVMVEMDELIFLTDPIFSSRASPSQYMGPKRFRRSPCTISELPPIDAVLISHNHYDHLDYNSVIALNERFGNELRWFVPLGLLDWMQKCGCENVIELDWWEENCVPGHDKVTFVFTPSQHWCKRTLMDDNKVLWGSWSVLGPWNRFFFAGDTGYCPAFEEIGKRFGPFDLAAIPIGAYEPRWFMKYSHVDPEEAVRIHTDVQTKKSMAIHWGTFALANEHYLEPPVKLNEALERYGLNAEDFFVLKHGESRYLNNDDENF
Experiment: Inhibition of Q320S NAPE-PLD mutant
quantity name: IC50
Number plus unit, in that order.

Prompt: Give a short answer stating reported IC50 for O=c1[nH]c(=O)c2cc(S(=O)(=O)Nc3ccc(-c4ccncc4)cc3)ccc2[nH]1 .
Completion: 36.7 µM

* * *

Target: Q320A NAPE-PLD mutant (Homo sapiens, UniProt Q6IQ20, Q320A)
Sequence (Q6IQ20 whole entry Q320A): as the sequence (Q6IQ20 whole entry Q320S) above, with S320A counted along it
Assay: Inhibition of Q320A NAPE-PLD mutant
quantity name: IC50 (µM)
Give bare numbers, in µM.

Prompt: Report IC50, nothing else, for this molecule: O=c1[nH]c(=O)c2cc(S(=O)(=O)Nc3ccc(-c4ccncc4)cc3)ccc2[nH]1
Completion: 89.2
